# SYSTEM_TESTED: CCK-1 receptor (Homo sapiens, UniProt P32238)
METRIC: pKi
pKi here: minus log base 10 of the concentration, concentration in moles per litre.

O=C(O)/C(=C/c1nc(-c2cc(Cl)ccc2Cl)c(-c2ccc3c(c2)OCO3)[nH]1)c1ccc(Cl)cc1: 7.80
O=C(O)/C(=C/c1nc(-c2cc(Cl)ccc2Cl)c(-c2ccc3c(c2)OCO3)[nH]1)c1cccc(Cl)c1: 8.50
Cc1cccc(/C(=C\c2nc(-c3cc(Cl)ccc3Cl)c(-c3ccc4c(c3)OCO4)[nH]2)C(=O)O)c1: 7.80

Value of pKi reported for the compound "COc1ccc(-c2[nH]c(/C=C(\C(=O)O)c3cccc(C(F)(F)F)c3)nc2-c2ccc(Cl)c(Cl)c2)cc1" is 8.00

====

Ki data for CCK-1 receptor (Homo sapiens) follow.
Report the figure in nM without appending any unit label.

COc1ccc(-c2[nH]c(CC(C(=O)O)c3cccc(Cl)c3)nc2-c2ccc(Cl)c(Cl)c2)cc1 (stereo not shown) [Example 25]: 31.6
COc1ccc(-c2[nH]c(/C=C(/C(=O)O)c3cccc(C)c3)nc2-c2ccc(Cl)c(Cl)c2)cc1 [Example 17]: 79.4

Value of Ki reported for the compound O=C(O)/C(=C\c1nc(-c2cc(Cl)ccc2Cl)c(-c2ccc3c(c2)OCO3)[nH]1)c1cccc2ccccc12 [Example 4] is 2.51

Value of Ki reported for the compound O=C(O)/C(=C\c1nc(-c2cc(Cl)ccc2Cl)c(-c2ccc3c(c2)OCO3)[nH]1)c1ccc(Cl)cc1 [Example 5] is 3.16

====

Protein target, amino acids: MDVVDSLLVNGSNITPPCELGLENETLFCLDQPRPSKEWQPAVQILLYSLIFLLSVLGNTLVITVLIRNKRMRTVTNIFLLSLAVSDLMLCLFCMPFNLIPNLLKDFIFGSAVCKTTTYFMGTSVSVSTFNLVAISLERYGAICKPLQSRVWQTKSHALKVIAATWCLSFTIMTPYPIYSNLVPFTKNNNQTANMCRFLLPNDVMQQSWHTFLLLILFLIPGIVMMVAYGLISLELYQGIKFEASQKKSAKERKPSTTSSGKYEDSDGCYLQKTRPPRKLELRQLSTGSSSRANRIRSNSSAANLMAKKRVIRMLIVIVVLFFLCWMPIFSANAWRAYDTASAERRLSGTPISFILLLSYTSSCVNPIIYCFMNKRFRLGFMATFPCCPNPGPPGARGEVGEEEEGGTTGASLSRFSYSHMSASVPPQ
METRIC: Ki (nM)
Report the figure in nM without appending any unit label.

Before answering, review these 5 worked examples.
COc1ccc(-c2[nH]c(CC(C(=O)O)c3ccc(C)cc3)nc2-c2ccc(Cl)c(Cl)c2)cc1 (stereo not shown): 126
Cc1cccc(/C(=C/c2nc(-c3cc(Cl)ccc3Cl)c(-c3ccc4c(c3)OCO4)[nH]2)C(=O)O)c1: 2
Cc1ccc(-c2nc(CC(C(=O)O)c3cccc(C)c3)[nH]c2-c2ccc(C)cc2)cc1 (stereo not shown): 20
COc1ccc(-c2[nH]c(/C=C(/C(=O)O)c3ccc(Cl)cc3)nc2-c2ccc(Cl)c(Cl)c2)cc1: 79.4
Cc1ccc(-c2nc(CC(C(=O)O)c3cccc(C)c3)n(C)c2-c2ccc(C)cc2)cc1 (stereo not shown): 39.8

Value of Ki reported for the molecule "O=C(O)/C(=C\c1nc(-c2cc(Cl)ccc2Cl)c(-c2ccc3c(c2)OCO3)[nH]1)c1cccc(C(F)(F)F)c1" is 5.01

Value of Ki reported for the molecule "COc1ccc(-c2[nH]c(/C=C(\C(=O)O)c3cccc(C)c3)nc2-c2ccc(Cl)c(Cl)c2)cc1" is 7.94
